# targetSystem: GSK-3β (AA 1-420) (Homo sapiens)
# Sequence (P49841 whole entry, the tested form may be a part): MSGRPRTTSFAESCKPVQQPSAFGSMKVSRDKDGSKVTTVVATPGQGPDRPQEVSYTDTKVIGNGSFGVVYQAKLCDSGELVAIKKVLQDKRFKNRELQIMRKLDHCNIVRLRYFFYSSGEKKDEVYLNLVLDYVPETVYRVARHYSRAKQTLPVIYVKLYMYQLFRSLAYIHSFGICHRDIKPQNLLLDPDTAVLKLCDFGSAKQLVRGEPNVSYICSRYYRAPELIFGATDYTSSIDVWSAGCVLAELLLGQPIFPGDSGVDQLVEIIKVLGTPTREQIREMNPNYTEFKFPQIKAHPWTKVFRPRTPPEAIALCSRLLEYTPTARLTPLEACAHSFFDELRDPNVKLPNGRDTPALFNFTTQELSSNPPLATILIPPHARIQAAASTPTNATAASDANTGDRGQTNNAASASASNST
pKi: −log10 of the molar value.
assayMetric: pKi

                          structurenotation        result
0  CC(=O)Nc1ccc(Sc2nc(Nc3cc(C)[nH]n3)cc(-c3cccc(NC(C)=O)c3)n2)cc1  6.00 to 7.00
1  Cc1cc(Nc2cc(N3CCN(C)CC3)nc(SCc3ccc(S(=O)(=O)N4CCOCC4)cc3)n2)n[nH]1  6.00 to 7.00
2  Cc1cc(Nc2cc(-c3ccccc3)nc(Sc3ccc(NC(=O)C4CC4)cc3)n2)n[nH]1  5.15 to 6.00
3  Cc1cc(Nc2cc(-c3ccccc3)nc(Oc3ccc(NC(=O)C4CC4)cc3)n2)n[nH]1  6.00 to 7.00
4  c1ccc(Nc2nc(Nc3cc(C4CC4)[nH]n3)c3ccccc3n2)cc1        > 7.00

Q: Which measured pKi value corresponds to `FC(F)(F)c1cccc(Nc2nc(Nc3n[nH]c4ccccc34)c3ccccc3n2)c1` ?
Ans: 5.15 to 6.00

Q: Which measured pKi value corresponds to `Cc1cc(Nc2nc(Sc3ccccc3O)nc3ccccc23)n[nH]1` ?
Ans: > 7.00

Q: Which measured pKi value corresponds to `CC(=O)Nc1ccc(Nc2nc(Nc3cc(C)[nH]n3)c3ccccc3n2)cc1C#N` ?
Ans: 6.00 to 7.00

Q: Which measured pKi value corresponds to `Cc1cc(Nc2nc(NCC3CCCCC3)nc3ccccc23)n[nH]1` ?
Ans: > 7.00

---

This section lists Ki readings for GSK-3β (AA 1-420) (Homo sapiens, UniProt P49841).

>>> df
                                   compound          result
0  Cc1cc(Nc2nc(Sc3ccc(N)cc3)nc3ccccc23)n[nH]1 [IIa-62]  100 to 1000 nM
1  COc1ccc(Oc2nc(Nc3cc(C)[nH]n3)c3ccccc3n2)cc1OC [IIb-7]  100 to 1000 nM
2  N#CCc1ccc(Nc2nc(Nc3cc(C4CC4)[nH]n3)c3ccccc3n2)cc1 [IIc-31]        < 100 nM
3  COCCNc1cc(Nc2cc(C)[nH]n2)nc(SCc2cccc(Cl)c2)n1 [IIIa-27]        < 100 nM
4  c1ccc(CCNc2nc(Nc3cc(C4CC4)[nH]n3)c3ccccc3n2)cc1 [IIc-28]  100 to 1000 nM
5  Cc1cc(Nc2nc(Nc3ccccc3)nc3c2CCCC3)n[nH]1 [IIc-45]  100 to 1000 nM

Q: Lookup: Ki / GSK-3β (AA 1-420) (Homo sapiens, UniProt P49841) / COc1cccc(Nc2nc(Nc3cc(C4CC4)[nH]n3)c3ccccc3n2)c1 [IIc-44]
Ans: 100 to 1000 nM

Q: Lookup: Ki / GSK-3β (AA 1-420) (Homo sapiens, UniProt P49841) / Cc1cc(Nc2nc(Nc3ccccc3CCO)nc3ccccc23)n[nH]1 [IIc-14]
Ans: 100 to 1000 nM

Q: Lookup: Ki / GSK-3β (AA 1-420) (Homo sapiens, UniProt P49841) / Cc1cnc(Sc2ccc3ccccc3c2)nc1Nc1cc(C2CC2)[nH]n1 [IIIa-5]
Ans: 100 to 1000 nM

Q: Lookup: Ki / GSK-3β (AA 1-420) (Homo sapiens, UniProt P49841) / CCCS(=O)(=O)Nc1ccc(Sc2nc(Nc3cc(C)n[nH]3)cc(-c3ccccc3)n2)cc1 [IIIa-17]
Ans: < 100 nM

---

# targetSystem: activated ERK2 (Homo sapiens, UniProt P28482)
# Sequence (P28482 whole entry): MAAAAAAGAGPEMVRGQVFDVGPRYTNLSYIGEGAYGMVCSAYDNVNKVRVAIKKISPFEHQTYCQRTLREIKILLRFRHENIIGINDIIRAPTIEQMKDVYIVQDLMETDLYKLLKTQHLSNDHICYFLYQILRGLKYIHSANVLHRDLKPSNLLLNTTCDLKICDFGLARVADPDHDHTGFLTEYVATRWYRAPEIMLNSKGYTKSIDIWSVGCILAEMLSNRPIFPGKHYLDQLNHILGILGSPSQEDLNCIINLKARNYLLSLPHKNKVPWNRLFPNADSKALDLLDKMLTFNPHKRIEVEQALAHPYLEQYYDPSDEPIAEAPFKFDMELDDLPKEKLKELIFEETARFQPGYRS
# measurementProtocol: ERK inhibition assay (spectrophotometric coupled-enzyme assay)
# measurementSetup: 10 nM activated ERK2, 65 μM ATP, 30° C.; read-out: Ki values for ERK-2
Catalogue of Ki readings, one per entry.

// solved cases for Ki follow
>>> print(df.to_string())
                          structurenotation  assaymetric            result
0  Cc1cc(Nc2nc(Nc3ccc(CC#N)cc3)nc3ccccc23)n[nH]1           Ki         < 1000 nM
1  Cc1cc(Nc2nc(Nc3ccc4ncsc4c3)nc3ccccc23)n[nH]1           Ki         < 1000 nM
2  CC(=O)Nc1ccc(Sc2nc(Nc3cc(C4CC4)[nH]n3)c3ccccc3n2)cc1           Ki  1000 to 20000 nM
3  c1ccc(Nc2nc(Nc3cc(C4CC4)[nH]n3)c3ccccc3n2)cc1           Ki  1000 to 20000 nM
4  N#CCc1ccc(Nc2nc(Nc3cc(C4CC4)[nH]n3)cc(-c3ccccc3)n2)cc1           Ki         < 1000 nM

Q: Lookup: Ki / activated ERK2 (Homo sapiens, UniProt P28482) / `c1ccc2c(Nc3cc(C4CC4)[nH]n3)nc(Nc3ccc4ncsc4c3)nc2c1`
Ans: < 1000 nM

Q: Lookup: Ki / activated ERK2 (Homo sapiens, UniProt P28482) / `OCCc1ccc(Nc2nc(Nc3cc(C4CC4)[nH]n3)c3ccccc3n2)cc1`
Ans: < 1000 nM

Q: Lookup: Ki / activated ERK2 (Homo sapiens, UniProt P28482) / `CCc1ccc(Nc2nc(Nc3cc(C4CC4)[nH]n3)c3ccccc3n2)cc1`
Ans: 1000 to 20000 nM

---

assayMetric: melting point

// solved cases for melting point follow
In [3]: df
Out[3]:
                          structurenotation         result
0  Cc1cnc(Sc2ccc3ccccc3c2)nc1Nc1cc(C2CC2)[nH]n1         197 °C
1  Cc1cccc(Oc2nc(Nc3cc(C4CC4)[nH]n3)c3ccccc3n2)c1  283 to 284 °C
2  c1ccc2cc(Sc3nc(Nc4cc(C5CC5)[nH]n4)c4ccccc4n3)ccc2c1  285 to 288 °C

Q: Which measured melting point value corresponds to `CCc1ccc(Nc2nc(Nc3cc(C4CC4)[nH]n3)c3ccccc3n2)cc1` ?
Ans: 250 to 251 °C

Q: Which measured melting point value corresponds to `Cc1cccc(Sc2nc(Nc3cc(C)[nH]n3)c3ccccc3n2)c1` ?
Ans: 249 to 250 °C

Q: Which measured melting point value corresponds to `Cc1cc(Nc2cc(-c3ccccc3)nc(Sc3ccc4ccccc4c3)n2)n[nH]1` ?
Ans: 237 to 239 °C

Q: Which measured melting point value corresponds to `Cc1ccc(Nc2nc(Nc3cc(C4CC4)[nH]n3)c3ccccc3n2)cc1C` ?
Ans: 245 to 246 °C

Q: Which measured melting point value corresponds to `Cc1cc(Nc2nc(Nc3ccc(CC(=O)O)c(C)c3)nc3ccccc23)n[nH]1` ?
Ans: 245 °C (dec.)

Q: Which measured melting point value corresponds to `c1ccc2c(Nc3cc(C4CC4)[nH]n3)nc(Nc3ccc4c(c3)CCC4)nc2c1` ?
Ans: 199 to 204 °C

---

Catalogue of Ki readings, one per entry.
# targetSystem: Aurora-2 (Homo sapiens, UniProt O14965)
# Sequence (O14965 1-403): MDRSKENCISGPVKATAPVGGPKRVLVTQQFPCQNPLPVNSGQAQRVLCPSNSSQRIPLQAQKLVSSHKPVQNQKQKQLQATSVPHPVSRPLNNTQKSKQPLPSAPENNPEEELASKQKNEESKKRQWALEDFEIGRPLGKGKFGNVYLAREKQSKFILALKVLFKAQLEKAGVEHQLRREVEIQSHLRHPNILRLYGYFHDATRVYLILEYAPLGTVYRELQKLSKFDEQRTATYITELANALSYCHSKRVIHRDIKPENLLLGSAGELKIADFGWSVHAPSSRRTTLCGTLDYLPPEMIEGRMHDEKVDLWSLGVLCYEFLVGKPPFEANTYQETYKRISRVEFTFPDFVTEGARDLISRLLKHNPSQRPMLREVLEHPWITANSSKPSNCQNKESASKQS

In [3]: df
Out[3]:
                          structurenotation            result
0  c1ccc2c(Nc3cc(C4CC4)[nH]n3)nc(NCCC3CCCCC3)nc2c1          < 100 nM
1  Cc1cc(Nc2nc(Nc3ccc(Br)cc3)nc3ccccc23)n[nH]1          < 100 nM
2  Cc1cc(Nc2nc(COc3ccc(Cl)cc3)nc3c2CCCC3)n[nH]1    100 to 1000 nM
3  FC(F)(F)c1ccccc1Nc1nc(Nc2n[nH]c3ccccc23)c2ccccc2n1  1000 to 10000 nM
4  c1ccc2c(Nc3cc(C4CC4)[nH]n3)nc(Nc3ccc4ncsc4c3)nc2c1          < 100 nM
5   Cc1cc(Nc2nc(NC3CCCCC3)nc3ccccc23)n[nH]1          < 100 nM
6  Cc1cc(Nc2nc(Sc3ccc(C(=O)NCCN(C)C)cc3)nc3ccccc23)n[nH]1    100 to 1000 nM
7  CCS(=O)(=O)Nc1ccc(Sc2nc(Nc3cc(C)[nH]n3)c3ccccc3n2)cc1          < 100 nM

Q: Which measured Ki value corresponds to `Cc1cc(Nc2nc(Sc3ccc(NC(=O)CC(C)C)cc3)nc3ccccc23)n[nH]1` ?
Ans: < 100 nM
